organism: Sus scrofa; test: Inhibition of porcine Pancrelipase at 400 molar excess after 30 mins
MEASURED_PROPERTY: inhibition
Quick note: unit goes after the number.

Use the examples below as a reference point.
{"columns": ["SMILES_RECORD", "inhibition"],
 "data": [
  ["COc1nn(-c2ccc(Oc3ccccc3)cc2)c(=O)o1", "90.6%"],
  ["COc1nn(-c2cccc(Oc3ccccc3)c2)c(=O)o1", "89.7%"],
  ["COc1nn(-c2ccccc2)c(=O)o1", "34.1%"]
]}

Now for the compound whose inhibition we want.
Query block: Looking for the measured inhibition of CCCCCCCCCCC[C@@H](C[C@@H]1OC(=O)[C@H]1CCCCCC)OC(=O)[C@H](CC(C)C)NC=O , can you help?
Result block: 93.1%

---

target: Pancreatic triacylglycerol lipase (Sus scrofa); assay: Inhibition of PPL at 400 molar excess after 30 mins in presence of NaTDC
As shown below, each of these compounds has a reported inhibition value.
Dear colleague, please return just the value in %, with no unit written.

Query block: Looking for the measured inhibition of COc1nn(-c2ccc(Oc3ccccc3)cc2)c(=O)o1 , can you help?
Result block: 87.1

Query block: Looking for the measured inhibition of COc1nn(-c2ccccc2)c(=O)o1 , can you help?
Result block: 35.8

Query block: Looking for the measured inhibition of COc1nn(-c2cccc(Oc3ccccc3)c2)c(=O)o1 , can you help?
Result block: 87.7

Query block: Looking for the measured inhibition of CCCCCCCCCCC[C@@H](C[C@@H]1OC(=O)[C@H]1CCCCCC)OC(=O)[C@H](CC(C)C)NC=O , can you help?
Result block: 90.9

---

As shown below, each of these compounds has a reported inhibition value.
molecular target: Gastric triacylglycerol lipase (Canis lupus familiaris) (UniProt P80035); assay: Inhibition of recombinant DGL expressed in transgenic maize at 20 molar excess after 30 mins in presence of NaTDC
Sequence (P80035 whole entry): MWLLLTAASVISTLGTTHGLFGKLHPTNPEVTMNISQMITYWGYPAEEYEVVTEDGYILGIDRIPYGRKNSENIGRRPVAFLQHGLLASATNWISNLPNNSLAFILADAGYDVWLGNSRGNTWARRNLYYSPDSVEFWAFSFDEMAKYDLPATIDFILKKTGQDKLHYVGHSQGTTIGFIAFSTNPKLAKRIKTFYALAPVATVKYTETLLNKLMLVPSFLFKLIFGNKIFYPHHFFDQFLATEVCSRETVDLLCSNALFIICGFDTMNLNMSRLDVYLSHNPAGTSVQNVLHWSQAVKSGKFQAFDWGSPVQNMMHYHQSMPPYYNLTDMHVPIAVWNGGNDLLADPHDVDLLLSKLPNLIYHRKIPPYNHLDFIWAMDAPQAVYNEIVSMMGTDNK
Quick note: unit goes after the number.

{"columns": ["SMILES_RECORD", "inhibition"],
 "data": [
  ["COc1nn(-c2cccc(Oc3ccccc3)c2)c(=O)o1", "81.9%"]
]}

Query block: Looking for the measured inhibition of COc1nn(-c2ccc(Oc3ccccc3)cc2)c(=O)o1 , can you help?
Result block: 92.7%

Query block: Looking for the measured inhibition of COc1nn(-c2ccccc2)c(=O)o1 , can you help?
Result block: 6.6%

Query block: Looking for the measured inhibition of CCCCCCCCCCC[C@@H](C[C@@H]1OC(=O)[C@H]1CCCCCC)OC(=O)[C@H](CC(C)C)NC=O , can you help?
Result block: 56.3%

---

target: Pancreatic triacylglycerol lipase (Homo sapiens); experiment: Inhibition of recombinant HPL expressed in Pichia pastoris at 100 molar excess after 30 mins in presence of NaTDC
The source made the active and inactive calls. No cut-off for these calls is given here.
MEASURED_PROPERTY: inhibition

{"columns": ["SMILES_RECORD", "MEASURED_TARGET", "READOUT_VALUE"],
 "data": [
  ["COc1nn(-c2cccc(Oc3ccccc3)c2)c(=O)o1", "Pancreatic triacylglycerol lipase (Homo sapiens)", "26.3%"],
  ["COc1nn(-c2ccc(Oc3ccccc3)cc2)c(=O)o1", "Pancreatic triacylglycerol lipase (Homo sapiens)", "inactive"],
  ["CCCCCCCCCCC[C@@H](C[C@@H]1OC(=O)[C@H]1CCCCCC)OC(=O)[C@H](CC(C)C)NC=O", "Pancreatic triacylglycerol lipase (Homo sapiens)", "77.2%"],
  ["COc1nn(-c2ccccc2)c(=O)o1", "Pancreatic triacylglycerol lipase (Homo sapiens)", "inactive"]
]}

---

As shown below, each of these compounds has a reported T1/2 value.
target: Bile salt-activated lipase (Homo sapiens); test: Inhibition of human pancreatic CEH assessed as half inactivation time at 4 molar excess
Dear colleague, please return just the value in s, with no unit written.

Use the examples below as a reference point.
{"columns": ["SMILES_RECORD", "MEASURED_TARGET", "MEASURED_PROPERTY", "READOUT_VALUE"],
 "data": [
  ["COc1nn(-c2ccccc2)c(=O)o1", "Bile salt-activated lipase (Homo sapiens)", "T1/2", 60],
  ["COc1nn(-c2cccc(Oc3ccccc3)c2)c(=O)o1", "Bile salt-activated lipase (Homo sapiens)", "T1/2", 54],
  ["CCCCCCCCCCC[C@@H](C[C@@H]1OC(=O)[C@H]1CCCCCC)OC(=O)[C@H](CC(C)C)NC=O", "Bile salt-activated lipase (Homo sapiens)", "T1/2", 31.2]
]}

Now for the compound whose T1/2 we want.
Query block: Looking for the measured T1/2 of COc1nn(-c2ccc(Oc3ccccc3)cc2)c(=O)o1 , can you help?
Result block: 85.8

---

target: Pancreatic lipase-related protein 2 (Cavia porcellus) (UniProt P81139); assay: Inhibition of recombinant GPLRP2 expressed in Aspergillus oryzae at 20 molar excess after 30 mins in presence of NaTDC
Sequence (P81139 whole entry): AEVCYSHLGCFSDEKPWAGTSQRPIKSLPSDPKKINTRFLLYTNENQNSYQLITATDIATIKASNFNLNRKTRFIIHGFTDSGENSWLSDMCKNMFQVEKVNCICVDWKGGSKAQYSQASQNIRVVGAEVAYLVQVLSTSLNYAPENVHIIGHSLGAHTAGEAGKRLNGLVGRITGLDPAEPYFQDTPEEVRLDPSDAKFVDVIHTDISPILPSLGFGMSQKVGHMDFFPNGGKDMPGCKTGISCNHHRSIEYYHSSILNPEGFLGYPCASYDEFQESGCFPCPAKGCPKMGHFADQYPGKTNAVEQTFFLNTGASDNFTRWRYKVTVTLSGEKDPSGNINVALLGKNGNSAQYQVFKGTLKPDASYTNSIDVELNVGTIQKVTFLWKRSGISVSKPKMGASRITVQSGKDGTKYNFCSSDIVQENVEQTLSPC
MEASURED_PROPERTY: inhibition (%)
Dear colleague, please return just the value in %, with no unit written.

{"columns": ["SMILES_RECORD", "READOUT_VALUE"],
 "data": [
  ["COc1nn(-c2cccc(Oc3ccccc3)c2)c(=O)o1", 90.4],
  ["COc1nn(-c2ccc(Oc3ccccc3)cc2)c(=O)o1", 23.6],
  ["COc1nn(-c2ccccc2)c(=O)o1", 86]
]}

Now for the molecule whose inhibition we want.
Query block: Looking for the measured inhibition of CCCCCCCCCCC[C@@H](C[C@@H]1OC(=O)[C@H]1CCCCCC)OC(=O)[C@H](CC(C)C)NC=O , can you help?
Result block: 87.3

---

molecular target: Pancreatic lipase-related protein 2 (Cavia porcellus) (UniProt P81139); experiment: Inhibition of recombinant GPLRP2 expressed in Aspergillus oryzae assessed as half inactivation time at 2 molar excess in presence of NaTDC
As shown below, each of these molecules has a reported T1/2 value.

Use the examples below as a reference point.
{"columns": ["SMILES_RECORD", "T1/2"],
 "data": [
  ["COc1nn(-c2ccc(Oc3ccccc3)cc2)c(=O)o1", "> 3600 s"],
  ["COc1nn(-c2cccc(Oc3ccccc3)c2)c(=O)o1", "27.6 s"]
]}

Query block: Looking for the measured T1/2 of COc1nn(-c2ccccc2)c(=O)o1 , can you help?
Result block: 598 s

Query block: Looking for the measured T1/2 of CCCCCCCCCCC[C@@H](C[C@@H]1OC(=O)[C@H]1CCCCCC)OC(=O)[C@H](CC(C)C)NC=O , can you help?
Result block: 24 s

---

As shown below, each of these compounds has a reported inhibition value.
target: Pancreatic triacylglycerol lipase (Sus scrofa) (UniProt P00591); assay: Inhibition of PPL at 100 molar excess after 30 mins in presence of NaTDC
Sequence (P00591 whole entry): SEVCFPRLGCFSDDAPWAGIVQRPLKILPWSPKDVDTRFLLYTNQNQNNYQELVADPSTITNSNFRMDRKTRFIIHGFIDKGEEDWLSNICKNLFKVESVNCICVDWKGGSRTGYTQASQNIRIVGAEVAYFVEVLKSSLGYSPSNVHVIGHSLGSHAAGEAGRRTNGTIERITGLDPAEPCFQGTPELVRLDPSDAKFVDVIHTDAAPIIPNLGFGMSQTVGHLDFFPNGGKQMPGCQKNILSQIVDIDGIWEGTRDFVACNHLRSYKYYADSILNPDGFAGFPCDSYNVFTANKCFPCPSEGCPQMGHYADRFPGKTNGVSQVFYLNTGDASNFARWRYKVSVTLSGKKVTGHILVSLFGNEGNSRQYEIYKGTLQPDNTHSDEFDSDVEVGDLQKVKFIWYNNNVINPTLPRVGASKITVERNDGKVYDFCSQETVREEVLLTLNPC
Dear colleague, please return just the value in %, with no unit written.

Query block: Looking for the measured inhibition of COc1nn(-c2cccc(Oc3ccccc3)c2)c(=O)o1 , can you help?
Result block: 85.1

Query block: Looking for the measured inhibition of COc1nn(-c2ccccc2)c(=O)o1 , can you help?
Result block: 10.7

Query block: Looking for the measured inhibition of COc1nn(-c2ccc(Oc3ccccc3)cc2)c(=O)o1 , can you help?
Result block: 72.9

Query block: Looking for the measured inhibition of CCCCCCCCCCC[C@@H](C[C@@H]1OC(=O)[C@H]1CCCCCC)OC(=O)[C@H](CC(C)C)NC=O , can you help?
Result block: 85.5

---

molecular target: Pancreatic lipase-related protein 2 (Homo sapiens) (UniProt P54317); experiment: Inhibition of recombinant HPLRP2 expressed in Pichia pastoris assessed as half inactivation time at 5 molar excess in presence of NaTDC
Sequence (P54317 whole entry): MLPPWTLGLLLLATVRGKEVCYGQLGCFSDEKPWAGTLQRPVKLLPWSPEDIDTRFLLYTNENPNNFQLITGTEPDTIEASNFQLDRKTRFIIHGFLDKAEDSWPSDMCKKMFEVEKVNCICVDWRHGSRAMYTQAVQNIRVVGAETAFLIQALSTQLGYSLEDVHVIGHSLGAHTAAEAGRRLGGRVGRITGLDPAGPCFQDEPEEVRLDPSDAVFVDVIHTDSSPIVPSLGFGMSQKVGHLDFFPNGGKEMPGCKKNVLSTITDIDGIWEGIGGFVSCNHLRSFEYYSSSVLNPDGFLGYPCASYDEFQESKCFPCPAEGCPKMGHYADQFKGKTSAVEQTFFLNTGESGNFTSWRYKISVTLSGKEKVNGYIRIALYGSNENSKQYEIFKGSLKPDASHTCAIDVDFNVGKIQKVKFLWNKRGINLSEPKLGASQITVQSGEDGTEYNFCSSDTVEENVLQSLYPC
MEASURED_PROPERTY: T1/2 (min)
Dear colleague, please return just the value in min, with no unit written.

Use the examples below as a reference point.
{"columns": ["SMILES_RECORD", "T1/2 [min]"],
 "data": [
  ["COc1nn(-c2ccc(Oc3ccccc3)cc2)c(=O)o1", 2.06],
  ["COc1nn(-c2cccc(Oc3ccccc3)c2)c(=O)o1", 0.78],
  ["CCCCCCCCCCC[C@@H](C[C@@H]1OC(=O)[C@H]1CCCCCC)OC(=O)[C@H](CC(C)C)NC=O", 0.55]
]}

Now for the compound whose T1/2 we want.
Query block: Looking for the measured T1/2 of COc1nn(-c2ccccc2)c(=O)o1 , can you help?
Result block: 14.6

---

As shown below, each of these compounds has a reported inhibition value.
molecular target: Bile salt-activated lipase (Homo sapiens) (UniProt P19835); assay: Inhibition of human pancreatic CEH at 20 molar excess after 30 mins
Sequence (P19835 whole entry): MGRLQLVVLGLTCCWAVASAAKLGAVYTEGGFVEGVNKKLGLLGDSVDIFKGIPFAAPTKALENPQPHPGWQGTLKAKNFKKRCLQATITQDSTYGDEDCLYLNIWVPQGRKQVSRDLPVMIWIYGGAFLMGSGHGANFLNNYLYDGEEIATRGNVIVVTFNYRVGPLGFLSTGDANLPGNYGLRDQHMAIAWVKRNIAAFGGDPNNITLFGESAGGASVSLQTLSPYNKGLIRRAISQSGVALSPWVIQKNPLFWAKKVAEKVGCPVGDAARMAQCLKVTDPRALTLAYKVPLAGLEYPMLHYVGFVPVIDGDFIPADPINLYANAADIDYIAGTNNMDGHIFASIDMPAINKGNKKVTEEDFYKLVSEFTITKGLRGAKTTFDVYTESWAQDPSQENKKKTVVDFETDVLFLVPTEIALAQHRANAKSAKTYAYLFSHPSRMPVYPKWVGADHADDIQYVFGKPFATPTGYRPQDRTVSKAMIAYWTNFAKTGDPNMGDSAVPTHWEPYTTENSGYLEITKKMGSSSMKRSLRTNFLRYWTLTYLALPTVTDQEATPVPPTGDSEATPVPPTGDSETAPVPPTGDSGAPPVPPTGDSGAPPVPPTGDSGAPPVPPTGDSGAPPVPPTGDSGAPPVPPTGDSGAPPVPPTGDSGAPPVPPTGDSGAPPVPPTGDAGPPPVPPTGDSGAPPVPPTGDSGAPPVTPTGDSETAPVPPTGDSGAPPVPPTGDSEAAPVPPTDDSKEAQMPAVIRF
Dear colleague, please return just the value in %, with no unit written.

Use the examples below as a reference point.
{"columns": ["SMILES_RECORD", "inhibition / %"],
 "data": [
  ["COc1nn(-c2ccccc2)c(=O)o1", 81.3],
  ["COc1nn(-c2ccc(Oc3ccccc3)cc2)c(=O)o1", 78.6]
]}

Query block: Looking for the measured inhibition of CCCCCCCCCCC[C@@H](C[C@@H]1OC(=O)[C@H]1CCCCCC)OC(=O)[C@H](CC(C)C)NC=O , can you help?
Result block: 83.6

Query block: Looking for the measured inhibition of COc1nn(-c2cccc(Oc3ccccc3)c2)c(=O)o1 , can you help?
Result block: 84.7
